The reported measurements were obtained from patent US20240173440A1.

- Experiment Notes: Pharmacokinetics (biodistribution 1-24 h) in non-tumor bearing mice
- Format: in vivo
- Test Parameters: female, BALB/c, mouse, blood, 200 umol, total radioactivity; 4 hours after injection, ^61Cu; read-out: Biodistribution Blood
Outcome Measure: tissue uptake at 4 h (%ID/g)

| Molecule | Unit Spec | Experimental Result |
| --- | --- | --- |
| C[C@@H](O)[C@@H]1NC(=O)[C@H](CCCCN)NC(=O)[C@@H](Cc2c[nH]c3ccccc23)NC(=O)[C@H](Cc2ccc(O)cc2)NC(=O)[C@@H](NC(=O)[C@@H](Cc2ccccc2)NC(=O)CCC(C(=O)O)N2CCN(CC(=O)O)CCN(CC(=O)O)CC2)CSSC[C@@H](C(=O)N[C@H](CO)[C@@H](C)O)NC1=O (single isomer, unassigned) [[^61/^64Cu]Cu-NODAGA-TOC, metal not drawn] | %ID/g | 0.04 |

---

- Experiment Notes: in vivo
- Test Parameters: athymic nude Foxn1+Foxn1+, mouse, iv, 20 umol, total radioactivity, Biodistribution Heart
Outcome Measure: tissue uptake at 4 h

| Compound | Experimental Result |
| --- | --- |
| C[C@@H](O)[C@@H]1NC(=O)[C@H](CCCCN)NC(=O)[C@@H](Cc2ccc(NC(N)=O)cc2)NC(=O)[C@H](Cc2ccc(O)cc2)NC(=O)[C@H](NC(=O)[C@H](Cc2ccc(Cl)cc2)NC(=O)CCC(C(=O)O)N2CCN(CC(=O)O)CCN(CC(=O)O)CC2)CSSC[C@@H](C(=O)N[C@H](Cc2ccc(O)cc2)C(N)=O)NC1=O (some centres unmarked) [[^61Cu]Cu-NODAGA-LM3, metal not drawn] | 0.13 %ID/g |
| C[C@@H](O)[C@@H]1NC(=O)[C@H](CCCCN)NC(=O)[C@@H](Cc2ccc(NC(N)=O)cc2)NC(=O)[C@H](Cc2ccc(O)cc2)NC(=O)[C@H](NC(=O)[C@H](Cc2ccc(Cl)cc2)NC(=O)CC[C@H](C(=O)O)N2CCN(CC(=O)O)CCN(CC(=O)O)CC2)CSSC[C@@H](C(=O)N[C@H](Cc2ccc(O)cc2)C(N)=O)NC1=O [[^61Cu]Cu-(R)-NODAGA-LM3, metal not drawn] | 0.17 %ID/g |

---

- System: HT-1080.hFAP and HT-1080.wt xenografts
- Experiment Notes: Quantitative biodistribution in HT-1080.hFAP and HT-1080.wt xenografted mice
- Assay type: in vivo
- Test Parameters: 1 h p.i., HT-1080.hFAP and HT-1080.wt xenografts
Under this convention, Fulfilled denotes Biodistribution HT1080.wt (FAP-negative tumor) strictly below 3 % IA/g and Not fulfilled denotes Biodistribution HT1080.wt (FAP-negative tumor) at or above 3 % IA/g.

| Compound | Label |
| --- | --- |
| CN(C(=O)CCC(=O)NCCNC(=O)CC[C@H](C(=O)O)N1CCN2CCN(CC1)CC(=O)[O][61Cu][O]C(=O)C2)c1ccc2nccc(C(=O)NCC(=O)N3CC(F)(F)C[C@H]3C#N)c2c1 [[^61Cu]Cu-NODAGA-F2] | Fulfilled |
| CN(CCCN1CCN(C(=O)CCC(C(=O)O)N2CCN3CCN(CC2)CC(=O)[O][61Cu][O]C(=O)C3)CC1)c1ccc2nccc(C(=O)NCC(=O)N3CC(F)(F)C[C@H]3C#N)c2c1 (some centres unmarked) [[^61Cu]Cu-NODAGA-FAPI-46] | Not fulfilled |
| CN(C(=O)CCC(=O)N1CCN(C(=O)CC[C@H](C(=O)O)N2CCN3CCN(CC2)CC(=O)[O][61Cu][O]C(=O)C3)CC1)c1ccc2nccc(C(=O)NCC(=O)N3CC(F)(F)C[C@H]3C#N)c2c1 [[^61Cu]Cu-NODAGA-F4] | Fulfilled |
| N#C[C@@H]1CC(F)(F)CN1C(=O)CNC(=O)c1ccnc2ccc(NC(=O)CCC(=O)N3CCN(C(=O)CC[C@H](C(=O)O)N4CCN5CCN(CC4)CC(=O)[O][61Cu][O]C(=O)C5)CC3)cc12 [[^61Cu]Cu-NODAGA-F3] | Not fulfilled |
| N#C[C@@H]1CC(F)(F)CN1C(=O)CNC(=O)c1ccnc2ccc(NC(=O)CCC(=O)NCCNC(=O)CC[C@H](C(=O)O)N3CCN4CCN(CC3)CC(=O)[O][61Cu][O]C(=O)C4)cc12 [[^61Cu]Cu-NODAGA-F1] | Not fulfilled |
